Measured values drawn from patent US20220177587A1 for this set.

I'd appreciate it if you could supply CD28 Fold change to WT CD80 values for the items below.
testSystem: CD28 (Homo sapiens, UniProt P10747)
experiment: Flow binding to Jurkat/IL2 reporter cells (CD28)
Design: host or cells: Jurkat cells expressing an IL-2-luciferase reporter
testSettings: Table E11; 33.3 nM; listed as WT CD80 ECD-Fc = 1.0
Give the figure by itself; no unit, no explanation.

Task: Entry H18Y/E35D/M38I/M47L/V68M/L85M (protein, UniProt P33681 35-288, looked up, variant H18Y E35D M38I M47L V68M L85M) T-lymphocyte activation …: VIHVTKEVKEVATLSCGYNVSVEELAQTRIYWQKDKKIVLTMMSGDLNIWPEYKNRTIFDITNNLSIMILALRPSDEGTYECVVMKYEKDAFKREHLAEVTLSVKADFPTPSISDFEIPTSNIRRIICSTSGGFPEPHLSWLENGEELNAINTTVSQDPETELYAVSSKLDFNMTTNHSFMCLIKYGHLRVNQTFNWNTTKQEHFPDNLLPSWAITLISVNGIFVICCLTYCFAPRCRERRRNERLRRESVRPV : reported CD28 Fold change to WT CD80 = ?
Result: 0.5

Task: Next: E35D/M43I/M47L/V68M (protein, UniProt P33681 35-288, looked up, variant E35D M43I M47L V68M) T-lymphocyte activation …: VIHVTKEVKEVATLSCGHNVSVEELAQTRIYWQKDKKMVLTMISGDLNIWPEYKNRTIFDITNNLSIMILALRPSDEGTYECVVLKYEKDAFKREHLAEVTLSVKADFPTPSISDFEIPTSNIRRIICSTSGGFPEPHLSWLENGEELNAINTTVSQDPETELYAVSSKLDFNMTTNHSFMCLIKYGHLRVNQTFNWNTTKQEHFPDNLLPSWAITLISVNGIFVICCLTYCFAPRCRERRRNERLRRESVRPV
Result: 48.3

Task: Next: T13R/Q33R/E35D/M47L/V68M/L85M (protein, CD80 v382 ECD) VIHVTKEVKEVARLSCGHNVSVEELAQTRIYWRKDKKMVLTMMSGDLNIWPEYKNRTIFDITNNLSIMILALRPSDEGTYECVVMKYEKDAFKREHLAEVTLSVKADFPTPSISDFETPTSNIRRIICSTSGGFPEPHLSWLENGEELNAINTTVSQDPETELYAVSSKLDFNMTTNHSFMCLIKYGHLRVNQTFNWNTTKQEHFPDN
Result: 3.6

Task: Next: H18Y/E35D/M47L/Y53F/V68M/A71G (protein, UniProt P33681 35-288, looked up, variant H18Y E35D M47L Y53F V68M A71G) T-lymphocyte activation …: VIHVTKEVKEVATLSCGYNVSVEELAQTRIYWQKDKKMVLTMMSGDLNIWPEFKNRTIFDITNNLSIMILGLRPSDEGTYECVVLKYEKDAFKREHLAEVTLSVKADFPTPSISDFEIPTSNIRRIICSTSGGFPEPHLSWLENGEELNAINTTVSQDPETELYAVSSKLDFNMTTNHSFMCLIKYGHLRVNQTFNWNTTKQEHFPDNLLPSWAITLISVNGIFVICCLTYCFAPRCRERRRNERLRRESVRPV
Result: 0.5

Task: Next: E35D/M47V/N48KN68M/L85M (protein) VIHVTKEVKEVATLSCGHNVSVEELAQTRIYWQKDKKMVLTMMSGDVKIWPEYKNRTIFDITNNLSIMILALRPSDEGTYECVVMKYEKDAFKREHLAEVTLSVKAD
Result: 7.8
